- tested-system: cGMP-specific 3',5'-cyclic phosphodiesterase (Homo sapiens) (UniProt O76074)
- procedure-summary: Percentage inhibition against phosphodiesterase 5 (PDE5) was determined using [3H]cGMP scintillation proximity assay at concentration of 1 uM
inhibition vs 40%: at or above is Met, below is Not met.

                                 smiles_text  discrete_label
 0  CC(C)Cn1c(=O)n(CN)c(=O)c2[nH]c(Cc3ccc(Br)cc3)nc21         Not met
 1  CC(C)Cn1c(=O)n(C)c(=O)c2[nH]c(Cc3ccc(Br)cc3)nc21             Met
 2  C#Cn1c(=O)c2[nH]c(Cc3ccc(Br)cc3)nc2n(CC(C)C)c1=O             Met
 3  CC(C)Cn1c(=O)n(CSc2ccccc2)c(=O)c2[nH]c(Cc3ccc(Br)cc3)nc21         Not met
 4  CC(C)Cn1c(=O)n(C2CCC2)c(=O)c2[nH]c(Cc3ccc(Br)cc3)nc21         Not met
 5  CC(C)Cn1c(=O)n(-c2ccncc2)c(=O)c2[nH]c(Cc3ccc(Br)cc3)nc21         Not met
 6  CCOc1ccccc1-n1c(=O)c2[nH]c(Cc3ccc(Br)cc3)nc2n(CC(C)C)c1=O         Not met
 7  CCn1c(=O)c2[nH]c(Cc3ccc(Br)cc3)nc2n(CC(C)C)c1=O             Met
 8  CC(C)Cn1c(=O)n(Cc2cccc3c2OCO3)c(=O)c2[nH]c(Cc3ccc(Br)cc3)nc21         Not met
 9  CC(C)Cn1c(=O)[nH]c(=O)c2[nH]c(Cc3ccc(Br)cc3)nc21             Met
10  CCCn1c(=O)c2[nH]c(Cc3ccc(Br)cc3)nc2n(CC(C)C)c1=O             Met
11  CC(C)Cn1c(=O)n(COc2ccccc2)c(=O)c2[nH]c(Cc3ccc(Br)cc3)nc21         Not met
12  CC(C)Cn1c(=O)n(-c2ccccn2)c(=O)c2[nH]c(Cc3ccc(Br)cc3)nc21         Not met
13  CC(C)Cn1c(=O)n(-c2cncn2C)c(=O)c2[nH]c(Cc3ccc(Br)cc3)nc21             Met
14  CC(C)Cn1c(=O)n(CCC2CCCCC2)c(=O)c2[nH]c(Cc3ccc(Br)cc3)nc21             Met
15  CC(C)Cn1c(=O)n(CC(C)(C)C)c(=O)c2[nH]c(Cc3ccc(Br)cc3)nc21         Not met
16  CC(C)Cn1c(=O)n(CO)c(=O)c2[nH]c(Cc3ccc(Br)cc3)nc21             Met
